Assay: qHTS assay to identify small molecule agonists of the sonic hedgehog signaling (Shh) pathway - cell viability counter screen (AID 1259366); also: nearly all actives have a fitted effect of over 50% in size
Details: NIH/3T3 Gli1-Luc viability, CellTiter-Fluor, 24 h; series mostly up to 92.4 µM
Inconclusive results are not listed. Active and inactive are the calls of the source. Calls follow the shape of the dose curve; as a rule, active = well fitted cell-killing curve with a large enough effect in the repeat runs; inconclusive = weak or mixed curves, or effect the other way; inactive = flat fitted curve, though single readings scatter.
measured.property: outcome

compound=O=C(O)Cc1sc(-c2ccccc2)nc1-c1ccc(Cl)cc1 measured_property=outcome val=inactive
compound=O=S1(=O)c2cccc3cccc(c23)N1CCCN1CCN(c2ccc(F)cc2)CC1 measured_property=outcome val=inactive
compound="CC(CN)CCCN (stereo not drawn)" measured_property=outcome val=inactive

---

Assay: qHTS RealTime-Glo MT Cell Viability Assay in HEK293 cells - 24 hour (AID 1224886); also: nearly all actives have a fitted effect of over 50% in size
Conditions: RealTime-Glo luminescence; series mostly up to 76.8 µM
Records with an inconclusive call do not appear. Activity calls are given as the source filed them. Calls follow the shape of the dose curve; as a rule, active = well fitted cell-killing curve with a large enough effect in the repeat runs; inconclusive = weak or mixed curves, or effect the other way; inactive = flat fitted curve, though single readings scatter.
Classes used: active, inactive

compound=COCCOCCOCCOCCOC label=inactive
compound=O=C(O)c1cccc(N(Cc2cccnc2)c2ccc(OC(F)F)c(OC(F)F)c2)c1 label=inactive
compound=CCCCCc1ccc(N)cc1 label=inactive
compound=Nc1nc(N)c(-c2ccccc2)s1 label=inactive
compound=COc1ccccc1OC(=O)Oc1ccccc1OC label=inactive
compound=O=S(=O)(O)c1ccc(O)c2ncccc12 label=inactive
compound=O=c1c2ccccc2nnn1CCl label=inactive
compound="CC(C)(C)c1ccc(OCC2CO2)cc1 (centres undefined)" label=inactive
compound=O=C(NS(=O)(=O)/C=C/c1cccs1)c1ccc(F)cc1Br label=inactive
compound=Cc1ccc(O)c([C@H](CCN(C(C)C)C(C)C)c2ccccc2)c1 label=inactive
compound="C1CCC2OC2C1 (centres undefined)" label=inactive
compound=CN(C)C/C=C(/c1ccc(Br)cc1)c1cccnc1 label=inactive
compound="CCCCOC(O)CC (centres undefined)" label=inactive
compound=CCCCOCCOCCOCCOCCO label=inactive
compound=N#CCc1cccc(C(F)(F)F)c1 label=inactive
compound="CC(CN)CCCN (centres undefined)" label=inactive
compound=Cc1nc2ccccc2n1Cc1ccc(Cl)cc1 label=active
compound=Cc1ncsc1CCO label=inactive
compound="CC(C)CCCC(C)CCO (centres undefined)" label=inactive
compound=Oc1ccc(Cc2ccccc2)cc1 label=active
compound="CC(O)C1CCCCC1 (centres undefined)" label=inactive
compound=CCCCCCCCCCCCCCCC(=O)OC/C=C(C)/C=C/C=C(C)/C=C/C1=C(C)CCCC1(C)C label=inactive
compound=CCN1CCC[C@H]1CNC(=O)c1c(OC)ccc(Br)c1OC label=inactive
compound=CC(C)c1ccccc1C(C)C label=inactive
compound=CC(=O)O[C@@H]1C(=O)O[C@@H]2[C@H]1OC(=O)[C@@H]2OC(C)=O label=inactive
compound=O=C(O)Cc1sc(-c2ccccc2)nc1-c1ccc(Cl)cc1 label=inactive
compound=O=[N+]([O-])c1cccc(Cl)c1Cl label=inactive
compound="CCc1nn(C2CCCCC2)c2cc(C3(C#N)CCC(C(=O)O)CC3)ccc12 (centres undefined)" label=inactive
compound=CC(=O)NCCCS(=O)(=O)O label=inactive

---

Experiment: qHTS assay to identify small molecule antagonists of the estrogen related receptor (ERR) signaling pathway from Tox21 library - cell viability counter screen (AID 1224834); also: nearly all actives have a fitted effect of over 30% in size
Conditions: ERR reporter cells viability, CellTiter-Fluor, 17.5 h; series mostly up to 92.4 µM
Results filed as inconclusive are left out. The source made the active and inactive calls. The call rests on the fitted dose curve; in most records, active means well fitted cell-killing curve with a large enough effect in the repeat runs; inconclusive means weak or mixed curves; inactive means flat fitted curve, though single readings scatter.
Classes used: YES for active, NO for inactive

molecule=CC(C)c1ccc2c(C(C)C)cc(C(C)C)c(S(=O)(=O)O)c2c1 label=NO
molecule="OCC1CC2CC1C1CCC(CO)C21 (stereo not drawn)" label=NO
molecule=O=[N+]([O-])c1cc[n+]([O-])cc1 label=NO
molecule=CC(=O)N(CC(=O)N(C)C)c1ccccc1 label=NO
molecule=CCOC(=O)CC(C)C label=NO
molecule=CNS(=O)(=O)Cc1ccc2[nH]cc(CCN(C)C)c2c1 label=NO
molecule="CCCCCC(CO)CCC (stereo not drawn)" label=NO
molecule="CC(=O)/C=C/C1C(C)=CCCC1(C)C (stereo not drawn)" label=NO
molecule=C[C@@H](C1=C(CCN(C)C)Cc2ccccc21)c1ccccn1 label=NO
molecule="CCc1nn(C2CCCCC2)c2cc(C3(C#N)CCC(C(=O)O)CC3)ccc12 (stereo not drawn)" label=YES
molecule=COC(=O)CSc1cc(N=c2sc(=O)n3n2CCCC3)c(F)cc1Cl label=NO
molecule=CCCCc1cc2ccccc2c(OCCN(C)C)n1 label=NO
molecule=Nc1ccc(C(=O)Nc2ccccc2N)cc1 label=NO

---

Experiment: qHTS assay to identify small molecule antagonists of the thyroid receptor (TR) signaling pathway - cell viability counter screen (AID 743064); also: nearly all actives have a fitted effect of over 50% in size; also: potency is read from the fitted curve at half-maximal effect
Conditions: GH3.TRE-Luc viability, CellTiter-Fluor, 24 h; series mostly up to 70.3 µM
Records with an inconclusive call do not appear. Calls of active or inactive are those of the source. Calls follow the shape of the dose curve; as a rule, active = well fitted cell-killing curve with a large enough effect in the repeat runs; inconclusive = weak or mixed curves, or effect the other way; inactive = no such curve, though single readings can be large or run the other way.
measured.property: Potency

compound=Cn1sccc1=O measured_property=Potency val="30.6 µM (active)"
compound=Cc1ncsc1CCO measured_property=Potency val=inactive
compound=COc1ccc([C@@H]2Sc3ccccc3N(CCN(C)C)C(=O)[C@@H]2OC(C)=O)cc1 measured_property=Potency val="23.7 µM (active)"
compound=Nc1nc(CC(=O)O)cs1 measured_property=Potency val=inactive
compound=COCCO measured_property=Potency val=inactive
compound=SC1CCCC1 measured_property=Potency val=inactive
compound=O=C(O)Cc1sc(-c2ccccc2)nc1-c1ccc(Cl)cc1 measured_property=Potency val=inactive
compound=CCCCOc1cc(C(=O)OCCN(CC)CC)ccc1N measured_property=Potency val=inactive
compound=CCCCCOC(=O)c1ccc(O)cc1 measured_property=Potency val=inactive
compound=CCN(CC)CCc1nc(-c2ccccc2)no1 measured_property=Potency val=inactive
compound=CC1(C)[C@H]2CC[C@]1(C)[C@H](O)C2 measured_property=Potency val=inactive
compound=CCOc1nc2cccc(C(=O)O)c2n1Cc1ccc(-c2ccccc2-c2nn[nH]n2)cc1 measured_property=Potency val="29.8 µM (active)"
compound="CCCCCCCCC(CO)CCCCCC (stereo not drawn)" measured_property=Potency val=inactive
compound=CN1CCC[C@@H]1c1cccnc1 measured_property=Potency val=inactive
compound=CN1CCC(=C2c3ccccc3CCc3sccc32)CC1 measured_property=Potency val="21.1 µM (active)"
compound="CC(CN)CCCN (stereo not drawn)" measured_property=Potency val=inactive
compound=O=C(NS(=O)(=O)/C=C/c1cccs1)c1ccc(F)cc1Br measured_property=Potency val=inactive
compound=O=C(Cl)c1ccc([N+](=O)[O-])cc1 measured_property=Potency val=inactive
compound=CCCCCCCCCCCCC(=O)O measured_property=Potency val=inactive
compound="CC/C(=C\\C(=N/O)C(N)=O)C(C)[N+](=O)[O-] (stereo not drawn)" measured_property=Potency val=inactive
compound=CCCCc1cc2ccccc2c(OCCN(C)C)n1 measured_property=Potency val="8.04 µM (active)"
compound=O=C(O)COC(=O)Cc1ccccc1Nc1c(Cl)cccc1Cl measured_property=Potency val=inactive
compound=CCOC(=O)CC(C)C measured_property=Potency val=inactive
compound=CCCCCCOC(=O)CCC measured_property=Potency val=inactive
compound=C=C(C)C(=O)OCCOc1ccccc1 measured_property=Potency val=inactive
compound=O=c1c2ccccc2nnn1CCl measured_property=Potency val=inactive
compound=COC(=O)C(C)=O measured_property=Potency val=inactive
compound=C=C(C)C(=O)OC(C)C measured_property=Potency val=inactive
compound=CC(C)c1cccc(C(C)C)c1NC(=O)NS(=O)(=O)c1cc(C(C)(C)O)co1 measured_property=Potency val=inactive
compound="C1CCC2OC2C1 (stereo not drawn)" measured_property=Potency val=inactive
compound="CC(C(=O)O)c1ccc(-c2ccccc2)c(F)c1 (stereo not drawn)" measured_property=Potency val=inactive
compound=CCCCCCCCCCCCCCCC(=O)OC/C=C(C)/C=C/C=C(C)/C=C/C1=C(C)CCCC1(C)C measured_property=Potency val=inactive
compound="CC(C)(C)c1ccc(OCC2CO2)cc1 (stereo not drawn)" measured_property=Potency val=inactive
compound=N#Cc1c(F)cccc1F measured_property=Potency val=inactive
compound="O=C(Nc1ccccc1)OCC(CN1CCCCC1)OC(=O)Nc1ccccc1 (stereo not drawn)" measured_property=Potency val="10.1 µM (active)"
compound=O=C(C(=O)c1ccc(Br)cc1)c1ccc(Br)cc1 measured_property=Potency val=inactive
compound=Cc1nc2ccccc2n1Cc1ccc(Cl)cc1 measured_property=Potency val=inactive
compound="CCCCCCCCCCCCCCC1CO1 (stereo not drawn)" measured_property=Potency val=inactive
compound=CN1CCN(C2=Nc3ccccc3Sc3ccc(Cl)cc32)CC1 measured_property=Potency val="13.3 µM (active)"
compound=CCCCCCCCN(C)C measured_property=Potency val=inactive
compound=NCCCN(CCO)CCO measured_property=Potency val=inactive
compound=CCCCOCCOCCOCCOCCO measured_property=Potency val=inactive
compound=Cc1cccc(Oc2ccccc2)c1 measured_property=Potency val=inactive
compound=CC(=O)O[C@@H]1C(=O)O[C@@H]2[C@H]1OC(=O)[C@@H]2OC(C)=O measured_property=Potency val=inactive
compound=NC(N)=N/N=C/c1c(Cl)cccc1Cl measured_property=Potency val="23.7 µM (active)"
compound=CCCC(C)C measured_property=Potency val=inactive
compound=CCN(CC)C(C)=O measured_property=Potency val=inactive
compound="Cn1c(=O)c2c(ncn2CC(O)CO)n(C)c1=O (stereo not drawn)" measured_property=Potency val=inactive
compound=CCOC(=S)SSC(=S)OCC measured_property=Potency val=inactive
compound=Cc1cccc(C(C)(C)C)c1O measured_property=Potency val=inactive
compound=Cn1c(NCCN(CCO)CCCc2ccc([N+](=O)[O-])cc2)cc(=O)n(C)c1=O measured_property=Potency val=inactive
compound=CCCCCc1ccc(N)cc1 measured_property=Potency val=inactive
compound=COC(=O)CSc1cc(N=c2sc(=O)n3n2CCCC3)c(F)cc1Cl measured_property=Potency val=inactive
compound=CN(c1nccc(=O)[nH]1)C1CCN(c2nc3ccccc3n2Cc2ccc(F)cc2)CC1 measured_property=Potency val=inactive
compound="CC(C)(C)C1CCCCC1O (stereo not drawn)" measured_property=Potency val=inactive
compound=Cc1cc(C)c(S(=O)(=O)O)cc1N=Nc1cc(S(=O)(=O)O)c2ccccc2c1O measured_property=Potency val="34.4 µM (active)"
compound=O=C1c2cccc(O)c2C(=O)c2c(O)cc(CO)cc21 measured_property=Potency val=inactive
compound=c1ccc(-c2nc[nH]c2-c2ccccc2)cc1 measured_property=Potency val=inactive

Reference source for all entries: PubChem BioAssay (Tox21)
